biological target: T1, Human CD3 on Human CD3+ Jurkat cells (human, UniProt P07766 23-207); assay: cell binding hCD3, fold over background
T1 construct: whole, on cells; CD3 complex on cells; also called hCD3
T1 sequence (P07766 23-207): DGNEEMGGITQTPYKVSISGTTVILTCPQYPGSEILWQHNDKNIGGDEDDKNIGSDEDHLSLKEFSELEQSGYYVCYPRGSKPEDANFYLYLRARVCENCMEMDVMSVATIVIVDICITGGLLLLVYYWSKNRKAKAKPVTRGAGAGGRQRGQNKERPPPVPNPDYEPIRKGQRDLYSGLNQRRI
measurement.kind: Cell Binding hCD3 (FOB)
The figure you give is taken to be in FOB; do not add the unit.

1. ADI-45961 (antibody, V domains shown, also called Ab24) VH: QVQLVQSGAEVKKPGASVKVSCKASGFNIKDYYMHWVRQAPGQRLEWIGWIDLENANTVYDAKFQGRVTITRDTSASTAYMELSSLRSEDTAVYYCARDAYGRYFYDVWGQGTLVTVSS VL: DIVMTQSPDSLAVSLGERATINCKSSQSLLNARTRRNYLAWYQQKPGQPPKLLIYWGSTRESGVPDRFSGSGSGTDFTLTISSLQAEDVAVYYCKQSYFRRTFGGGTKVEIK :: 18

Now for the binder whose Cell Binding hCD3 (FOB) we want.
For ADI-45968 (antibody, V domains shown, also called Ab4) VH: QVQLVQSGAEVKKPGASVKVSCKASGFNIKDYYMHWVRQAPGQRLEWIGWIDLENANTVYDAKFQGRVTITRDASASTAYMELSSLRSEDTAVYYCARDAYGRYFYDVWGQGTLVTVSS VL: DIVMTQSPDSLAVSLGERATINCKSSQSLLNARTGKNYLAWYQQKPGQPPKLLIYWASTRESGVPDRFSGSGSGTDFTLTISSLQAEDVAVYYCVQSYFRRTFGGGTKVEIK , what is its reported Cell Binding hCD3 (FOB)?
16
